tested on: Akt phosphorylated at Ser473 in PC-3 cells; test: Cellular assay: phosphorylation of Akt at Ser473 in PC-3 cells (MSD ELISA); type: cell-based; details: PC-3 cells, 60 min compound incubation, MSD ELISA; read-out: IC50 pAkt_S473
QUANTITY NAME: IC50

Reference set, count: 2
[
  {
    "COMPOUND": "CC(C)NCCNC(=O)c1cc(C(C)Nc2ccc(F)c(F)c2)c2nc(N3CCOCC3)cnc2c1 (single isomer, unassigned) [Compound 364b]",
    "IC50": "> 513 nM"
  },
  {
    "COMPOUND": "CC(Nc1cc(F)cc(F)c1)c1cc(CNCC(F)(F)F)cc2ncc(N3CCOCC3)nc12 (single isomer, unassigned) [Compound 162]",
    "IC50": "209 nM"
  }
]

Next compound, IC50 to be filled in.
For the compound CC(Nc1cc(F)cc(F)c1)c1cc(C(=O)N(C)C)cc2ncc(C3=CCOCC3)nc12 (single isomer, unassigned) [Compound 159] , the measured IC50 on Akt phosphorylated at Ser473 in PC-3 cells was > 513 nM

###

target: UniProtKB O00329
Sequence (O00329 whole entry): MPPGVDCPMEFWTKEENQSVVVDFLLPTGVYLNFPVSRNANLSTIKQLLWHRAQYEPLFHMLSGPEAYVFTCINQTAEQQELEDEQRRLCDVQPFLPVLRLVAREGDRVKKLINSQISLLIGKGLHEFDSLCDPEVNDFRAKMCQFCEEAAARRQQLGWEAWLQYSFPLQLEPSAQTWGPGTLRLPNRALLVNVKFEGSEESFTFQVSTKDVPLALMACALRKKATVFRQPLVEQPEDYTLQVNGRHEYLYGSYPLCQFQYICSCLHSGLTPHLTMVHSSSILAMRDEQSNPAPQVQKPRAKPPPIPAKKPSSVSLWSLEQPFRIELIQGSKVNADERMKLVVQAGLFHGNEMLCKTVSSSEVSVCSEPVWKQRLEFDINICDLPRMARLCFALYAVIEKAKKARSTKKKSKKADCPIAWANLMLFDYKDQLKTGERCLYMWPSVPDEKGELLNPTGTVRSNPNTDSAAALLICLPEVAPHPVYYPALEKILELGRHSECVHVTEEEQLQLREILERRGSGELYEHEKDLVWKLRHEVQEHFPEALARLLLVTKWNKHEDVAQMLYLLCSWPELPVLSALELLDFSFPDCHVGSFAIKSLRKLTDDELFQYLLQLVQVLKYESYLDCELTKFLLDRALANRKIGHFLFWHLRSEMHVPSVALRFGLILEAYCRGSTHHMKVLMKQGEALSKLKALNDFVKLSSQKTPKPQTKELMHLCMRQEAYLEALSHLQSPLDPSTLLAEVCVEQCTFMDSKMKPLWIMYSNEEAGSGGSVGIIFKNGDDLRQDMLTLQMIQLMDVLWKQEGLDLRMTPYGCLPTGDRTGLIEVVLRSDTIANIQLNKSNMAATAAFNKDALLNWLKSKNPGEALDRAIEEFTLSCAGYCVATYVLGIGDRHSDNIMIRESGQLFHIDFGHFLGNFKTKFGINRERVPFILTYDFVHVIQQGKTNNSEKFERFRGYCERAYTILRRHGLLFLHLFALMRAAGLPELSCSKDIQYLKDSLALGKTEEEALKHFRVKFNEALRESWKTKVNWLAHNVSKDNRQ
Each record here notes measured pKd.
Just so you know, pKd here is -log10 of the concentration in molar units; reply with that number alone.

[
  {
    "COMPOUND": "CC(Nc1cc(F)c(F)c(F)c1)c1cc(C(=O)NCCN(C)C)cc2ncc(N3CCOCC3)nc12 (single isomer, unassigned) [Compound 309a]",
    "pKd": 7.23
  },
  {
    "COMPOUND": "CN(C)C(=O)c1cc(N2CCCC2c2cc(F)cc(F)c2)c2nc(N3CCOCC3)cnc2c1 (stereo not shown) [Compound 395]",
    "pKd": 5.65
  },
  {
    "COMPOUND": "CC(Nc1ccc(F)c(F)c1)c1cc(C(=O)NC[C@@H](C)O)cc2ncc(N3CCOCC3)nc12 (single isomer, unassigned) [Compound 346a]",
    "pKd": 6.02
  },
  {
    "COMPOUND": "CC(Nc1ccc(F)c(F)c1)c1cc(CO)cc2ncc(N3CCOCC3)nc12 (stereo not shown) [Compound 303]",
    "pKd": 6.34
  }
]

For the compound CC(Nc1cc(F)cc(F)c1)c1cc(C(=O)NCCO)cc2ncc(N3CCOCC3)nc12 (single isomer, unassigned) [Compound 189] , the measured pKd on UniProtKB O00329 was 4.55

For the compound CC1CN(C(=O)c2cc(C(C)Nc3ccc(F)c(F)c3)c3nc(N4CCOCC4)cnc3c2)CC(C)N1 (stereo not shown) [Compound 357b] , the measured pKd on UniProtKB O00329 was 6.80

For the compound CN[C@@H]1CCN(C(=O)c2cc(C(C)Nc3ccc(F)c(F)c3)c3nc(N4CCOCC4)cnc3c2)C1 (single isomer, unassigned) [Compound 371a] , the measured pKd on UniProtKB O00329 was 7.08

For the compound CNCCNC(=O)c1cc(C2CCCN2c2cc(F)cc(F)c2)c2nc(N3CCOCC3)cnc2c1 (single isomer, unassigned) [Compound 17] , the measured pKd on UniProtKB O00329 was 8.52

For the compound CC(Oc1cccc(F)c1)c1cc(C(=O)O)cc2ncc(N3CCOCC3)nc12 (single isomer, unassigned) [Compound 257c] , the measured pKd on UniProtKB O00329 was 5.52

Where these numbers come from: patent US10526316B2
